Source listed as PubChem BioAssay AID330.

System: P388 leukemia ip, CD2F1 mice, survival T/C
MEASUREMENT_DESCRIPTION: NCI In Vivo Anticancer Drug Screen. Data for tumor model P388 Leukemia (intraperitoneal) in CD2F1 (CDF1) mice
REPORTED_CONDITIONS: endpoint: median survival time; dose: 50.0 mg/kg/injection; schedule: Q01DX005 (ip); vehicle: Klucel (hydroxypropylcellulose) (HPC); higher = longer survival
Protocol: The antitumor activity of compounds was measured in mice bearing transplantable tumors. Survival or tumor size were measured and the results are expressed as the measurement made in the treated group (T) divided by the measurement made in the vehicle treated control group (C). The tumor model used in this assay is P388 Leukemia (intraperitoneal) in CD2F1 (CDF1) mice
Inconclusive results and toxic doses are left out. Square brackets hold non-standard residues; d marks the D form. Peptide text beside a SMILES is read from it. * marks the point of attachment. Cbz = O=C(OCc1ccccc1)*; Nva = CCC[CH](N)C(=O)O

MOLECULE	SUBJECT_OF_TEST	T/C
CCN(CC)c1ccc(NC(c2ccccc2)C(O)c2ccccc2)cc1 (centres undefined)	P388 leukemia ip, CD2F1 mice, survival T/C	96 % of control
CC[C@@]12C[C@]1(C(=O)OC)C(=O)N1CCc3c([nH]c4ccccc34)[C@H]12	P388 leukemia ip, CD2F1 mice, survival T/C	90 % of control
S=C(NCCl)NCc1ccccc1	P388 leukemia ip, CD2F1 mice, survival T/C	105 % of control
O=C(Nc1cc(Nc2ccc(NC(=O)c3ccccc3)c3c2C(=O)c2ccccc2C3=O)cc2c1C(=O)c1ccccc1C2=O)c1ccccc1	P388 leukemia ip, CD2F1 mice, survival T/C	103 % of control
CC(NC(=O)OCc1ccccc1)C(=O)NC(CO)C(N)=O (stereo not drawn) (Cbz-Ala-Ser-NH2; configuration not given here)	P388 leukemia ip, CD2F1 mice, survival T/C	97 % of control
CCCC(NC(=O)OCc1ccccc1)C(=O)NC(Cc1ccc(O)cc1)C(=O)O (centres undefined) (Cbz-[Nva]-Tyr-OH; configuration not given here)	P388 leukemia ip, CD2F1 mice, survival T/C	102 % of control
OCC(O)CNc1ncnc2cc(Cl)ccc12 (centres undefined)	P388 leukemia ip, CD2F1 mice, survival T/C	96 % of control
CC(=O)OCC12C(=O)CC(C)C3(CC(c4ccoc4)OC3=O)C1(C)CCCC21CO1 (centres undefined)	P388 leukemia ip, CD2F1 mice, survival T/C	94 % of control
O=[N+]([O-])c1cc2c(ccc3occc32)o1	P388 leukemia ip, CD2F1 mice, survival T/C	102 % of control

* * *

We begin with a simple list: items and their reported T/C.
System: P388 leukemia ip, CD2F1 mice, survival T/C
MEASUREMENT_DESCRIPTION: NCI In Vivo Anticancer Drug Screen. Data for tumor model P388 Leukemia (intraperitoneal) in CD2F1 (CDF1) mice
REPORTED_CONDITIONS: endpoint: median survival time; dose: 50.0 mg/kg/injection; schedule: Q01DX009 (ip); vehicle: saline with Tween-80; higher = longer survival
Toxic doses and inconclusive results are not listed.
MEASURE_NAME: T/C

COMPOUND	MEASURE_NAME	DATA_VALUE
CC[C@H]1CN2CCc3cc(OC)c(OC)cc3[C@@H]2C[C@@H]1C[C@@H]1c2cc(OC)c(OC)cc2CCN1N=O	T/C	100 % of control
CCCCOCN(COCCCC)c1ccc(C)cc1	T/C	112 % of control
COC(CCl)(CBr)OC	T/C	97 % of control
O=S(=O)(Oc1ccc2ccccc2c1)C(F)(F)C(F)(F)C(F)(F)C(F)(F)F	T/C	100 % of control
CC1CN(C(=O)Nc2ccc([N+](=O)[O-])cc2)CC(C)O1 (stereo unspecified)	T/C	96 % of control
CCCCCCCCCCCCCCCCCCCCN1CCOCC1	T/C	92 % of control
